Give IC50 for every item shown.
Test system: M. tuberculosis H37Rv growth inhibition with meropenem
Assay: dose response, H37Rv, with and without meropenem (AID 434987);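 further: growth over 7 days at 37 °C before Alamar Blue read on day 9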
Conditions: M. tuberculosis H37Rv growth inhibition; measured here: IC50 without meropenem

Q) Give the measured IC50 for COc1ccc(NCC(=O)N/N=C/C(C)c2ccccc2)cc1 (stereo not given)
A) > 100 µM

Q) Give the measured IC50 for `O=C(Nc1ccccc1)c1c2c(nc3ccccc13)CCCC2`
A) > 100 µM

Q) Give the measured IC50 for `CCOC(=O)c1c(C)nc2sc(C(=O)Nc3ccccc3)c(N)c2c1-c1ccc(OC)cc1`
A) > 100 µM

Q) Give the measured IC50 for `COc1ccc(/C=N/Nc2nc(-c3ccc(C)cc3)c(NC(C)=O)s2)cc1OC`
A) > 100 µM

Q) Give the measured IC50 for `COc1ccccc1CNC(=O)COC(=O)C1=COCCO1`
A) 67.9 µM

Q) Give the measured IC50 for `CONC(=O)c1cc(OCC(F)(F)F)ccc1OCC(F)(F)F`
A) > 100 µM

Q) Give the measured IC50 for `Cn1nnnc1SCC(=O)Nc1ccccc1[N+](=O)[O-]`
A) 71.9 µM

Q) Give the measured IC50 for `CNC(=S)N/N=C1\C(=O)c2cccc3cccc1c23`
A) > 100 µM

Q) Give the measured IC50 for `Cc1noc(NS(=O)(=O)c2ccc(N/C=C\C(=O)c3ccc4c(c3)OCO4)cc2)c1C`
A) 91.5 µM

Q) Give the measured IC50 for `CCOC(=O)c1c(NC(=O)COC(=O)c2ncc(Cl)c(Cl)c2Cl)sc(C(=O)N(C)C)c1C`
A) 47.3 µM

Q) Give the measured IC50 for `CCOc1cc(CNC(C)C)c(Cl)cc1OCC(=O)NCCc1ccccc1`
A) > 100 µM

Q) Give the measured IC50 for `Cc1ccc(SCc2c(C#N)c3ccccc3n2C)cc1`
A) > 100 µM

Q) Give the measured IC50 for `CCNC(=S)N/N=C1\C(=O)c2cccc3cccc1c23`
A) > 100 µM

Q) Give the measured IC50 for CC(=O)Nc1ccc(C(=O)N(C2=NC(C)CS2)c2ccc(Cl)cc2)cc1 (stereo not given)
A) 44.1 µM

Q) Give the measured IC50 for `O=C(Nc1ccccc1-c1ccccc1)C12CC3CC(CC(C3)C1)C2`
A) > 100 µM

Q) Give the measured IC50 for `Cc1ccc(S(=O)(=O)NCCCCCC(=O)Nc2ccccn2)cc1`
A) > 100 µM

Q) Give the measured IC50 for `Cn1c(SCC(=O)OC2CCCCC2)nnc1-c1ccc2c(c1)OCO2`
A) 30.5 µM

Q) Give the measured IC50 for `COc1ccc(C(=O)Nc2nc3ccc(OC)cc3s2)cc1`
A) 65.1 µM

Q) Give the measured IC50 for `C[C@H](NC(=O)c1[nH]cnc1C(=O)Nc1ccc(Cl)cc1)C(=O)OC(C)(C)C`
A) > 100 µM

Q) Give the measured IC50 for `C/C(=N\NC(=O)c1ccncc1)c1c(O)n(-c2ccccc2)c(=O)[nH]c1=O`
A) 5.74 µM

Q) Give the measured IC50 for `COc1ccc(CC2=C(O)c3ccccc3C(=O)C2=O)cc1`
A) > 100 µM

Q) Give the measured IC50 for `CN(C)S(=O)(=O)c1ccc(NC(=O)c2cc3ccccc3o2)cc1`
A) > 100 µM

Q) Give the measured IC50 for CC(=O)C1=C(C)NC(SCC(=O)c2ccccc2)=C(C#N)C1CC(C)C (stereo not given)
A) 88.5 µM

Q) Give the measured IC50 for `COc1cc(C(=S)N2CCOCC2)ccc1OC(=O)c1ccc([N+](=O)[O-])cc1[N+](=O)[O-]`
A) 6.01 µM

Q) Give the measured IC50 for FC(F)Oc1ccccc1C1CC(c2ccc(Br)s2)Nc2ncnn21 (stereo not given)
A) > 100 µM

Q) Give the measured IC50 for `O=C(COc1ccc(Cl)cc1)OCC(=O)N1CCCCCC1`
A) > 100 µM

Q) Give the measured IC50 for `CN(C)S(=O)(=O)c1ccc(C(=O)/C=C/c2cccnc2)cc1`
A) 9.41 µM

Q) Give the measured IC50 for `COc1ccc(/C=C/C(=O)NCC(=O)N/N=C/c2cc(Br)ccc2OCc2ccccc2)cc1`
A) > 100 µM

Q) Give the measured IC50 for `Cn1c(=O)c(C(=O)COC(=O)c2cc(C3CC3)nc3ccccc23)c(N)n(Cc2ccccc2)c1=O`
A) > 100 µM

Q) Give the measured IC50 for `CC(=O)c1ccccc1OCCOc1ncnc2sccc12`
A) > 100 µM

Q) Give the measured IC50 for `COc1ccc(NC(=O)CCc2ccccc2)cc1NC(=O)c1ccco1`
A) > 100 µM

Q) Give the measured IC50 for `CSc1ccc(/C=C/C(=O)Nc2ccccc2)cc1`
A) > 100 µM

Q) Give the measured IC50 for `O=C(N[C@@H](Cc1ccccc1)C(=O)CCl)OCc1ccccc1`
A) 17.3 µM

Q) Give the measured IC50 for `COc1cc(NC(=O)C2CCCCC2)c(OC)cc1NC(=O)CN1CCCCC1`
A) 47.4 µM

Q) Give the measured IC50 for O=C(OC(C(=O)Nc1ccc(Cl)cc1C(F)(F)F)c1ccccc1)C1=COCCO1 (stereo not given)
A) > 100 µM

Q) Give the measured IC50 for `COc1cccc(-c2ccc(-c3noc(-c4ccccc4F)n3)c(OC)n2)c1`
A) > 100 µM

Q) Give the measured IC50 for `CCOc1ccc(S(=O)(=O)n2nnc3ccccc32)cc1C(C)C`
A) > 100 µM

Q) Give the measured IC50 for `Cn1c(/C=N/c2nc3ccccc3[nH]2)nc2ccccc21`
A) 3.82 µM

Q) Give the measured IC50 for `O=c1c2c(nc3n1CCCCC3)sc1c(O)c(Br)ccc12`
A) > 100 µM

Q) Give the measured IC50 for COc1ccc(C(=O)Nc2ccccc2C(=O)NC(C(=O)NCc2ccco2)C(C)C)cc1 (stereo not given)
A) > 100 µM

Q) Give the measured IC50 for Cc1ccc(C)c(SCc2noc(C(=O)NCC3CCCO3)c2C(=O)O)c1 (stereo not given)
A) 50.7 µM

Q) Give the measured IC50 for `CSCC(=O)Nc1ccc(F)c(Cl)c1`
A) 21.9 µM

Q) Give the measured IC50 for `CC(=O)c1c(C)[nH]c(C(=O)OCC(=O)Nc2nnc(-c3ccccc3)o2)c1C`
A) > 100 µM

Q) Give the measured IC50 for `C=CCNC(=S)NC(=O)c1csc([N+](=O)[O-])c1`
A) 49 µM

Q) Give the measured IC50 for `O=C(N/N=C\c1cn[nH]c1-c1ccc(Cl)cc1)c1cccs1`
A) > 100 µM
